Reported melting point values for the following compounds.

| Compound | melting point |
| --- | --- |
| CCCCCc1ccc(OCC(O)CCCCCCC(=O)O)cc1 (stereo not given) | 105 to 106 °C |
| CCc1c(C(=O)C(N)=O)c2ccsc2n1Cc1ccccc1 | 90 to 92 °C |
| O=C1CCS(=O)(=O)c2sccc21 | 121 to 122 °C |
| COC(=O)c1ccc2c(c1)C(c1ccccn1)CC(C)(C)O2 (stereo not given) | 113 to 115 °C |

Please turn your attention to the following entry.
Give a short answer stating reported melting point for `CN1CCC(=C2c3cc(Br)ccc3C=Cn3cccc32)CC1` .
138 to 142 °C

###

Reported melting point values for the following molecules.

The examples below pair each entry with its known result.
| Mol | melting point |
| --- | --- |
| CCn1cc(Cl)nc(S)c1=O | 142 to 144 °C |
| Cn1cc(Cl)c2c1C(=O)Nc1ccccc1N2 | 172 to 175 °C |

Please turn your attention to the following entry.
Give a short answer stating reported melting point for `Nc1cccc(Oc2ccc(Cl)nn2)c1` .
76 to 77 °C

###

Reported melting point values for the following molecules.

Give a short answer stating reported melting point for `O=C(C=Cc1ccccc1C(=O)Cl)c1ccc([N+](=O)[O-])cc1` .
133 to 134 °C

Give a short answer stating reported melting point for `O=C(O)Cc1noc(CC(=O)O)n1` .
109 to 111 °C

Give a short answer stating reported melting point for `Nc1ccccc1C(=O)NN1CCOCC1` .
172 °C

###

Assay metric: melting point

| Molecule | melting point |
| --- | --- |
| CS(=O)c1ccc(Oc2ccc(Cl)c(Cl)c2)cc1 (stereo unspecified) | 92 to 93.5 °C |
| NS(=O)(=O)c1ccc(-n2nc(CF)cc2-c2ccccc2)cc1 | 162 to 163 °C |

Give a short answer stating reported melting point for `COC(=O)c1cc(=O)c2cc(C(F)(F)F)ccc2[nH]1` .
289 to 291 °C

Give a short answer stating reported melting point for `Cc1noc(NS(=O)(=O)c2c(Cc3ccc4c(c3)OCO4)sc3ccccc23)c1C` .
135 to 137 °C

Give a short answer stating reported melting point for `Cc1cn2c(=O)c3c(Cl)cccc3nc2s1` .
235 to 236 °C

Give a short answer stating reported melting point for `Cc1cc(O)c(O)cc1S(=O)(=O)c1ccc(Cl)c([N+](=O)[O-])c1` .
196 to 197 °C

###

Reported melting point values for the following compounds.

| Compound | melting point |
| --- | --- |
| COc1ccc(C(=O)Cc2c(Cl)cncc2Cl)c2c1CC1(CCCC1)O2 | 70 to 72 °C |

Give a short answer stating reported melting point for `O=C(NC(=O)C(c1ccccc1)c1ccccc1)OCCCCc1ccccc1` .
118 °C

Give a short answer stating reported melting point for `COc1ccc(/C(C)=C/c2ccc(C(=O)OCc3ccccc3)cc2)cc1C12CC3CC(CC(C3)C1)C2` .
230 to 240 °C

Give a short answer stating reported melting point for `CCCC(=O)c1nc(CCC)[nH]c1C` .
94 to 95 °C

Give a short answer stating reported melting point for `Cc1cc(C)c(-c2c(O)c(Cl)c(-c3ccc(Cl)cc3)oc2=O)c(C)c1` .
229 to 231 °C

Give a short answer stating reported melting point for `O=c1[nH]c2ccc(F)cc2c(=O)n1CCS` .
240 to 242 °C

The measured values listed here are drawn from a melting point compilation (Tetko et al.; mined from patent text by program, amines drawn as free bases though some values may be those of a salt).
